procedure.details: self-splicing fitness, log relative to wild type (ln ratio); higher = more splicing; Tetrahymena group I intron in knt gene, E. coli kanamycin selection, DiMSum; sequences stand for … in CUCUCU…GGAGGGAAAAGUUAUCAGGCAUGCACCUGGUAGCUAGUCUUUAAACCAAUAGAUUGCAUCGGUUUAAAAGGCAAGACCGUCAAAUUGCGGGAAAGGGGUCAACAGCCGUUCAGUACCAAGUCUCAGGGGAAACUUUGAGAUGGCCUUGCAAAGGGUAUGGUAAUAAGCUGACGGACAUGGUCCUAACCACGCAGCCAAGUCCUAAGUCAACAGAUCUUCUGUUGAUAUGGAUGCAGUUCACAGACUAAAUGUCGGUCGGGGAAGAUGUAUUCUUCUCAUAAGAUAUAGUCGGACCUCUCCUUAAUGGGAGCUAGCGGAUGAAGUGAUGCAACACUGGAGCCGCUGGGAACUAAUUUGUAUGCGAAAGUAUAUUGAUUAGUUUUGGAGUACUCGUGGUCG;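 also: selection with 25 µg/mL kanamycin versus none on LB agar overnight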
test.context: 30 °C
Kind request: treat -3 as inclusive, so self-splicing fitness (ln) at -3 or higher is true, anything lower is false.

Entry GCGUAGCAAUAUUACGCAAA : is its self-splicing fitness (ln) no less than -3?
true

Entry UUCAAGCAAUAUUACGUACA : is its self-splicing fitness (ln) no less than -3?
true

Entry CCUAAGCAAUAUUACGGCAU : is its self-splicing fitness (ln) no less than -3?
false

Entry CAACAGCAAUAUUACGUUUC : is its self-splicing fitness (ln) no less than -3?
false

Entry AUCUAGCAAUAUUACGACGA : is its self-splicing fitness (ln) no less than -3?
true

====

procedure.details: self-splicing fitness, log relative to wild type (ln ratio); higher = more splicing; Tetrahymena group I intron in knt gene, E. coli kanamycin selection, DiMSum; sequences stand for … in CUCUCU…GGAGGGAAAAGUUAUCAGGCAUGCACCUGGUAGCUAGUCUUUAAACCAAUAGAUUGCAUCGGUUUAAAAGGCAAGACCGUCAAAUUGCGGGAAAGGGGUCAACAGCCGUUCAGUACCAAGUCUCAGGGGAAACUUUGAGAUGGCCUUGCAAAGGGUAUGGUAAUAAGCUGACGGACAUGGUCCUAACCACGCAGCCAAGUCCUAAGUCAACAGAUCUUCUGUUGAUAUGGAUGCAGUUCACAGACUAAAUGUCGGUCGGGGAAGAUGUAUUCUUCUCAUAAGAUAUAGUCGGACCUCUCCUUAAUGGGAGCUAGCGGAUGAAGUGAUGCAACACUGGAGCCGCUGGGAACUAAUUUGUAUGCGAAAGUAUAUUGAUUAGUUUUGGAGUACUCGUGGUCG
test.context: 30 °C
measured.endpoint: self-splicing fitness (ln)
One number for each entry.

Here is how some sequences turned out for self-splicing fitness (ln).
Need self-splicing fitness (ln), item UGGAAGCAAUAUUACGGAAG
-1.69

Need self-splicing fitness (ln), item AGACAGCAAUAUUACGAACG
-1.29

Need self-splicing fitness (ln), item UCCGAGCAAUAUUACGGUUA
-0.525

Would you be so kind as to report self-splicing fitness (ln) for each listed record?
1. GCCAAGCAAUAUUACGAAUA
2. CUAGAGCAAUAUUACGUGUU

[-2.96, -3.3]

Would you be so kind as to report self-splicing fitness (ln) for each listed record?
1. CAACAGCAAUAUUACGGUCA
2. AAAUAGCAAUAUUACGCGUU
3. AAAUAGCAAUAUUACGAAAA
4. GCCGAGCAAUAUUACGCUCA
5. UCAUAGCAAUAUUACGCCGG
6. CAUGAGCAAUAUUACGUCGU
7. GGAGAGCAAUAUUACGAGAC

[-1.16, -2.16, -2.66, -0.335, -1.25, -3.75, -2.12]

====

procedure.details: self-splicing fitness, log relative to wild type (ln ratio); higher = more splicing; Tetrahymena group I intron in knt gene, E. coli kanamycin selection, DiMSum; sequences stand for … in CUCUCU…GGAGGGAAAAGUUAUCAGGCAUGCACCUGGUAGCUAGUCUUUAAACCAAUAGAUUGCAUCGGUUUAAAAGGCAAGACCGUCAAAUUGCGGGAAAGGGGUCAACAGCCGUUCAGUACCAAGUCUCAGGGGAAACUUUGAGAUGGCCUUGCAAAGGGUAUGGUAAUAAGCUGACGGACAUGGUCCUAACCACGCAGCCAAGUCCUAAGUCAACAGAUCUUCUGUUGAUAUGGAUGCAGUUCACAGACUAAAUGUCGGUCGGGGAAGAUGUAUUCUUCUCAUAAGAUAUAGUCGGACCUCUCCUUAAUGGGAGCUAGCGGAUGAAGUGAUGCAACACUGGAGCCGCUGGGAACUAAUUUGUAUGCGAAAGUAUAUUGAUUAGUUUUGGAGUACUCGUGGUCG
test.context: 30 °C
Kind request: treat -2 as inclusive, so self-splicing fitness (ln) at -2 or higher is yes (1), anything lower is no (0).

Entry CGUAAGCAAUAUUACGGAGG : is its self-splicing fitness (ln) no less than -2?
no (0)

Next:
Entry ACGUAGCAAUAUUACGUAGU : is its self-splicing fitness (ln) no less than -2?
no (0)

Entry ACCUAGCAAUAUUACGUGCG : is its self-splicing fitness (ln) no less than -2?
yes (1)

Entry UUAGAGCAAUAUUACGUCGA : is its self-splicing fitness (ln) no less than -2?
yes (1)

Entry UCGAAGCAAUAUUACGAAUG : is its self-splicing fitness (ln) no less than -2?
no (0)

Entry CAGCAGCAAUAUUACGGAUA : is its self-splicing fitness (ln) no less than -2?
no (0)

Entry CCGCAGCAAUAUUACGAUCU : is its self-splicing fitness (ln) no less than -2?
no (0)

Entry AUCUAGCAAUAUUACGAAGG : is its self-splicing fitness (ln) no less than -2?
no (0)

Entry GCAGAGCAAUAUUACGUUAU : is its self-splicing fitness (ln) no less than -2?
no (0)

Entry GGACAGCAAUAUUACGAUUU : is its self-splicing fitness (ln) no less than -2?
yes (1)

Entry CCCCAGCAAUAUUACGCCGC : is its self-splicing fitness (ln) no less than -2?
no (0)

Entry GAAGAGCAAUAUUACGGACC : is its self-splicing fitness (ln) no less than -2?
yes (1)

====

procedure.details: self-splicing fitness, log relative to wild type (ln ratio); higher = more splicing; Tetrahymena group I intron in knt gene, E. coli kanamycin selection, DiMSum; sequences stand for … in CUCUCU…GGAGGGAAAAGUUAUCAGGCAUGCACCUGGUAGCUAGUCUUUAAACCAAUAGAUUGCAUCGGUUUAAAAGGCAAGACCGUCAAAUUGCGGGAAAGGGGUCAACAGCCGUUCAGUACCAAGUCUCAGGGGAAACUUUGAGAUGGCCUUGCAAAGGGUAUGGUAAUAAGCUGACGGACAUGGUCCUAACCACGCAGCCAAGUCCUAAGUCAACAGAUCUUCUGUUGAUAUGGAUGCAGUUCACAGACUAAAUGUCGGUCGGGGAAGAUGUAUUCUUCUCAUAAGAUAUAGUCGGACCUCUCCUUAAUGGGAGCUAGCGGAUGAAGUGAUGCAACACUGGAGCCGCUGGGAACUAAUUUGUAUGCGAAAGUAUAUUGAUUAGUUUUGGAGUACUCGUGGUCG
test.context: 30 °C
measured.endpoint: self-splicing fitness (ln)
Give bare numbers.

Here is how some sequences turned out for self-splicing fitness (ln).
Need self-splicing fitness (ln), item CCACAGCAAUAUUACGAUGC
-3.7

Need self-splicing fitness (ln), item UGUCAGCAAUAUUACGCUGC
-3.54

Need self-splicing fitness (ln), item UACGAGCAAUAUUACGUAGU
-3.39

Need self-splicing fitness (ln), item UAUCAGCAAUAUUACGAAUU
-0.95

Need self-splicing fitness (ln), item AGACAGCAAUAUUACGCAUG
-2.45

Could you now look at the following sequence, please?
Need self-splicing fitness (ln), item GUCCAGCAAUAUUACGGUCA
-0.244

====

procedure.details: self-splicing fitness, log relative to wild type (ln ratio); higher = more splicing; Tetrahymena group I intron in knt gene, E. coli kanamycin selection, DiMSum; sequences stand for … in CUCUCU…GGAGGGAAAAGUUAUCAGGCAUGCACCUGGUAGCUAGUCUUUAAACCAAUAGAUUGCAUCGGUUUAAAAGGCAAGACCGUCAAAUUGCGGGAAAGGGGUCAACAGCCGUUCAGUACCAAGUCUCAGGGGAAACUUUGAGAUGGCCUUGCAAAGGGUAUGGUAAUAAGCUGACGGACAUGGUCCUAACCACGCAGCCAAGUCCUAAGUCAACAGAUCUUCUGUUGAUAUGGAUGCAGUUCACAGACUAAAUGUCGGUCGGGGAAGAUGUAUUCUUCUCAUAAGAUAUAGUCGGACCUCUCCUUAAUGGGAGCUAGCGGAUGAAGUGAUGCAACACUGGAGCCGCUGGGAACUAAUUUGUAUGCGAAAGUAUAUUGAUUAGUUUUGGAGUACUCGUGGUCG
test.context: 30 °C
measured.endpoint: self-splicing fitness (ln)
Give bare numbers.

Would you be so kind as to report self-splicing fitness (ln) for each listed record?
1. AUGUAGCAAUAUUACGCUCA
2. GAGCAGCAAUAUUACGGCAC
3. ACCCAGCAAUAUUACGUAUG

1: -0.372; 2: -0.575; 3: -3.89

Would you be so kind as to report self-splicing fitness (ln) for each listed record?
1. ACAAAGCAAUAUUACGCAAA
2. UAAAAGCAAUAUUACGUCGG
3. CCACAGCAAUAUUACGCCAA
4. AAUGAGCAAUAUUACGUUGU
5. UACGAGCAAUAUUACGUUCA

[-2.72, -0.992, -2.96, -3.73, -1.3]
